Test Target: hCA XII (Homo sapiens)
Sequence (O43570 25-354): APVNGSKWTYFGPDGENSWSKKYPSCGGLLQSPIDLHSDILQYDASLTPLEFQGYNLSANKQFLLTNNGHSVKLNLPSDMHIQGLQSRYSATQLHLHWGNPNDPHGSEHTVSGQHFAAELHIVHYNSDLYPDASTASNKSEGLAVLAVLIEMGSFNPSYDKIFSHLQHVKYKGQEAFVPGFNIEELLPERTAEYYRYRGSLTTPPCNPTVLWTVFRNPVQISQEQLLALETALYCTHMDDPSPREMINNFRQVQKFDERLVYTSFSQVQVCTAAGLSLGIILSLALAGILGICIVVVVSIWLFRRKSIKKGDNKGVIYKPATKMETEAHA
Protocol: stopped-flow CO2 hydrase assay, hCA XII
Measurement Context: recombinant enzyme, stopped-flow CO2 hydrase assay, mean from 3 different assays, errors ± 5–10%
Measured Property: Ki (nM)

COC(=O)c1cc(-c2nc3ccc(S(N)(=O)=O)cc3[nH]2)ccc1O = 22.3
NS(=O)(=O)c1ccc2nc(-c3ccc(O)cc3)[nH]c2c1 = 44.1
COC(=O)c1cc(CCc2nc3ccc(S(N)(=O)=O)cc3[nH]2)ccc1O = 7.9
NS(=O)(=O)c1ccc2nc(CCc3ccc(O)cc3)[nH]c2c1 = 9.8
CCNS(=O)(=O)c1ccc2nc(-c3ccc(O)c(C(=O)O)c3)[nH]c2c1 = 464
NS(=O)(=O)c1ccc2nc(-c3ccc(O)c(O)c3)[nH]c2c1 = 8.5
NS(=O)(=O)c1ccc2nc(CCc3ccc(O)c(C(=O)O)c3)[nH]c2c1 = 4.2

A = NS(=O)(=O)c1ccc2nc(-c3ccc(O)c(C(=O)O)c3)[nH]c2c1
B = NS(=O)(=O)c1ccc2nc(Cc3ccc(O)cc3)[nH]c2c1
### Prompt Field: entry with larger Ki (options A / B ). Returns: label corresponding to the selected item.
### Response B

From: paper PMC6758606
